B1: Homeobox protein SIX6, residues 134 to 184; numbered along this chain, O95475 (parent)
chain: CFKERTRHLLREWYLQDPYPNPSKKRELAQATGLTPTQVGNWFKNRRQRDR

# Variants of: B1
# assay protocol: abundance fitness (aPCA) (normalised: wild type 0, dead -1); higher = more abundant; growth selection in yeast, the domain comes from the species named
# condition context: Homo sapiens
Listed next: entries and their corresponding abundance fitness.
Answer field: number only, no words.

| variant code | abundance fitness |
| --- | --- |
| K25M | -0.126 |
| K25I | 0.118 |
| D50T | -0.153 |
| G33S | -0.598 |
| K44C | -0.361 |

q: Please indicate abundance fitness recorded for N41G
a: -0.627

q: Please report abundance fitness for the following variant: N45F
a: -0.712

q: Determine from records and report abundance fitness for K24G
a: -0.374

q: Give reported abundance fitness value for P22R
a: -0.634

q: Quickly give me recorded abundance fitness for R26V
a: 0.055

q: Specify measured abundance fitness for P22V .
a: -0.682
